Test: qHTS assay to identify small molecule agonists of the sonic hedgehog signaling (Shh) pathway - cell viability counter screen (AID 1259366); further: nearly all actives have a fitted effect of over 50% in size
Conditions: NIH/3T3 Gli1-Luc viability, CellTiter-Fluor, 24 h; series mostly up to 92.4 µM
Results filed as inconclusive are left out. The source made the active and inactive calls. The call rests on the fitted dose curve; in most records, active means well fitted cell-killing curve with a large enough effect in the repeat runs; inconclusive means weak or mixed curves, or effect the other way; inactive means flat fitted curve, though single readings scatter.
Possible outcomes: active, inactive

molecule | assigned.category
BrC1CCC(Br)C(Br)CCC(Br)C(Br)CCC1Br (stereo unspecified) | inactive
C=C(C)C1CC=C(C)C(OC(C)=O)C1 (stereo unspecified) | inactive
CC(C)CCCCCCc1ccc(O)cc1 | active
O=c1n(CC2CO2)c(=O)n(CC2CO2)c(=O)n1CC1CO1 (stereo unspecified) | active
O=Cc1ccc(Cl)cc1 | inactive
CC(C)(C)NCC(O)COc1ccccc1OCC1CCCO1 (stereo unspecified) | inactive
CCC(C)(Oc1ccc(C2(c3ccc(OC(C)(CC)C(=O)O)cc3)CCCCC2)cc1)C(=O)O (stereo unspecified) | inactive
CC1COc2c(N3CCN(C)CC3)c(F)cc3c(=O)c(C(=O)O)cn1c23 (stereo unspecified) | inactive
O=C(Cl)c1cccc(C(=O)Cl)c1 | inactive
OCC(CO)N[C@H]1C[C@](O)(CO)[C@@H](O)[C@H](O)[C@H]1O | inactive
Cc1cc(Cc2cc(C)cc(C(C)(C)C)c2O)c(O)c(C(C)(C)C)c1 | active
c1ccc2cc3c(ccc4ccccc43)cc2c1 | inactive
CC(=O)OCCOCCOCCOC(C)=O | inactive
CC(C)(C)NCC(O)c1cc(O)cc(O)c1 (stereo unspecified) | inactive
O=C(O)c1cccc(C(=O)O)c1 | inactive
CCCCCCCCCCCCCC[P+](CCCC)(CCCC)CCCC | active
O | inactive
CNC1(C)C2CCC(C2)C1(C)C (stereo unspecified) | inactive
Cc1cc(C(C)(C)C)c(O)c(C(C)(C)C)c1 | inactive
NC(N)=Nc1nc(CSCC/C(N)=N/S(N)(=O)=O)cs1 | inactive
CC(COc1ccccc1)N(CCCl)Cc1ccccc1 (stereo unspecified) | inactive
O=C1CC2(CCCC2)CC(=O)N1CCCCN1CCN(c2ncccn2)CC1 | inactive
OCCN1CCNCC1 | inactive
O=C(OCc1ccccc1)c1ccc(O)cc1 | inactive
C=CC(=O)OCCCCCCCC | inactive
c1ccc2c(c1)-c1cccc3c1c-2cc1ccccc13 | inactive
CCCCN(CCO)CCCC | inactive
NC12CC3CC(CC(C3)C1)C2 | inactive
CCCCC/C=C/CC1CC(=O)OC1=O (stereo unspecified) | inactive
O=C(O)c1cn(-c2ccc(F)cc2)c2cc(N3CCNCC3)c(F)cc2c1=O | inactive
NCCO | inactive
CCOc1ccccc1C(N)=O | inactive
CCCOC(=O)c1cc(O)c(O)c(O)c1 | active
O=C(O)CCc1ccccc1 | inactive
CC[C@@H](N)CO | inactive
NCCCCCC(=O)O | inactive
CC(=O)N[C@@H](CS)C(=O)O | inactive
CC(=O)O[C@]1(C(C)=O)CC[C@H]2[C@@H]3C[C@H](C)C4=CC(=O)CC[C@]4(C)[C@H]3CC[C@@]21C | inactive
Cc1ccnc2c1NC(=O)c1cccnc1N2C1CC1 | inactive
CCOC(=O)C(C)C(C)=O (stereo unspecified) | inactive
Cc1cccc(O)c1C | inactive
